- tgt: Torsin-1A-interacting protein 1 (Homo sapiens)
- assay_notes: LAP1 binders from COS7 cell lysate, primary screen, small-molecule microarray, 635/667 nm fluorescence (AID 1116)
- test_settings: COS7-hLAP1 lysate binding, 635 nm fluorescence, higher = more signal
assay_readout: composite z-score
Number only, no unit.

As a guide, the following entries are already answered.
CN(C)CCCCCCNC(=O)[C@@H]1C[C@@H]2C(=O)N[C@@H](CCCCN)C(=O)N2[C@@H]1c1cccc(OCCO)c1: 4.77
NCCCCCNC(=O)[C@@H]1C[C@@H]2C(=O)NCC(=O)N2[C@@H]1c1ccc(O)cc1: 0.855
O=C1O[C@H](c2ccccc2)[C@H](c2ccccc2)N2[C@H]1[C@@H](C(=O)Nc1nc3ccccc3s1)[C@]1(C(=O)Nc3ccc(C#CC4(O)CCCCCC4)cc31)[C@H]2c1ccc(OCCO)cc1: 1.55
C=CC[C@@]1(C(N)=O)N=C(c2ccc(OCCCO)cc2)O[C@@H]1c1ccccc1CN=[N+]=[N-]: 1.91
O=C1O[C@@H](c2ccccc2)[C@@H](c2ccccc2)N2[C@@H](c3ccccc3OCCO)[C@]3(C(=O)Nc4ccc(C#CC5=CCCCC5)cc43)[C@@H](C(=O)Nc3nc4ccccc4s3)[C@H]12: 0.705
CN(C)C(=O)[C@]1(Cc2ccccc2N=[N+]=[N-])N=C(c2ccc(OCCCO)cc2)O[C@@H]1c1ccccc1: 0.897

Report composite z-score for COc1ccc(C(O)C2C=CC3C(=O)N(C)C(=O)C3N2N2CCCCC2)c2ccccc12 (configuration not stated) tested on Torsin-1A-interacting protein 1 (Homo sapiens).
0.826

Kindly state the measured composite z-score obtained for "COc1ccc(C#Cc2ccc3c(c2)[C@]2(C(=O)N3)[C@H](c3ccccc3OCCO)N3[C@H](c4ccccc4)[C@H](c4ccccc4)OC(=O)[C@H]3[C@@H]2C(=O)O)cc1" with Torsin-1A-interacting protein 1 (Homo sapiens).
1.77
